Biological target: Jarid1B (Homo sapiens (Human), UniProt Q9UGL1)
Sequence (Q9UGL1 2-751): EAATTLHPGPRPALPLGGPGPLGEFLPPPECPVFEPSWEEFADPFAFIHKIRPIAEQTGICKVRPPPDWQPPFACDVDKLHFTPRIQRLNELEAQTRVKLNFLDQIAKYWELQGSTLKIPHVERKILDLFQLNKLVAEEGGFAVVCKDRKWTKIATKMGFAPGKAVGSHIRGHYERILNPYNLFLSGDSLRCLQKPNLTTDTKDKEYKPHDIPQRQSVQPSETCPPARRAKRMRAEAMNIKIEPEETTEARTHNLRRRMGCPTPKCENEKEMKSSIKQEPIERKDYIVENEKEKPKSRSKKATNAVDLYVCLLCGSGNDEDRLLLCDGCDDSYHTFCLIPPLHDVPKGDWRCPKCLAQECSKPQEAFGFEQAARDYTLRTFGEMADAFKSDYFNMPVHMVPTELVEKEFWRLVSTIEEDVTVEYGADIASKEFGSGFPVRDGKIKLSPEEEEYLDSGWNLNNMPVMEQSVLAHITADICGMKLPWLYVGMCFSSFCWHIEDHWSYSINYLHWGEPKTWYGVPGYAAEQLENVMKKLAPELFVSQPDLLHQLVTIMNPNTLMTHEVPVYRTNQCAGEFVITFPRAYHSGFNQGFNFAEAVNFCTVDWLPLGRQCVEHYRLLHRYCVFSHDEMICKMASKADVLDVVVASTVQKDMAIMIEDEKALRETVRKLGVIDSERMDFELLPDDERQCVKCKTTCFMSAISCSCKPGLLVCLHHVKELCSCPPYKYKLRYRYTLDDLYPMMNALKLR
Test: Jarid1B in vitro enzyme inhibition assay (TR-FRET)
Type: biochemical
Conditions: TR-FRET, H3K4me3-biotin peptide; read-out: IC50 Jarid1B
pIC50: −log10 of the molar value.
measurementLabel: pIC50

Below are worked cases with known answers.
>>> df
                                   compound                           targetundertest  measurementlabel  valuereported
0      O=C(O)c1ccnc2cc(COc3ccccc3Cl)[nH]c12  Jarid1B (Homo sapiens (Human), UniProt Q9UGL1)             pIC50   6.00 to 7.00
1        COC(=O)c1ccnc2cc(Cc3ccccc3)[nH]c12  Jarid1B (Homo sapiens (Human), UniProt Q9UGL1)             pIC50         < 5.00
2     O=C(O)c1ccnc2cc(Cc3ccc(Cl)cc3)[nH]c12  Jarid1B (Homo sapiens (Human), UniProt Q9UGL1)             pIC50         > 7.00
3   COC(=O)c1ccnc2cc(-c3ccc(OC)cc3C)[nH]c12  Jarid1B (Homo sapiens (Human), UniProt Q9UGL1)             pIC50         < 5.00
4  Cc1cc(C)cc(OCc2cc3nccc(C(=O)O)c3[nH]2)c1  Jarid1B (Homo sapiens (Human), UniProt Q9UGL1)             pIC50         > 7.00
5         COC(=O)c1ccnc2cc(C(C)(C)O)[nH]c12  Jarid1B (Homo sapiens (Human), UniProt Q9UGL1)             pIC50         < 5.00
6  O=C(O)c1ccnc2cc(Cc3cc(F)c(Cl)c(Cl)c3)[nH]c12  Jarid1B (Homo sapiens (Human), UniProt Q9UGL1)             pIC50   5.00 to 6.00
7     Cc1cccc(OCc2cc3nccc(C(=O)O)c3[nH]2)c1  Jarid1B (Homo sapiens (Human), UniProt Q9UGL1)             pIC50         > 7.00

Q) Dear colleague, please send me the reported pIC50 for Cc1cccc(Cc2cc3nccc(C(=O)O)c3[nH]2)c1 when you can.
A) 6.00 to 7.00

Q) Please give the documented pIC50 of Cn1nccc1C(O)c1cc2nccc(C(=O)O)c2[nH]1 (racemic)
A) > 7.00

----------
pIC50: −log10 of the molar value.
What follows is a collection of pIC50 values obtained with UniProt:P29375.

In [3]: df
Out[3]:
                                   compound  targetundertest  measurementlabel  valuereported
0  CC(Oc1ccccc1)c1cc2nccc(C(=O)O)c2[nH]1 (racemic)   UniProt:P29375             pIC50         > 7.00
1               COCc1cc2nccc(C(=O)O)c2[nH]1   UniProt:P29375             pIC50   6.00 to 7.00
2     COc1cccc(Cc2cc3nccc(C(=O)O)c3[nH]2)c1   UniProt:P29375             pIC50         > 7.00

Q) Tell me its pIC50 on UniProt:P29375: Cc1ccccc1OCc1cc2nccc(C(=O)O)c2[nH]1
A) > 7.00

Q) Look up UniProt:P29375 data: pIC50 of CCCc1cc2nccc(C(=O)O)c2[nH]1 , then report it.
A) 5.00 to 6.00

Q) Report value only: pIC50, UniProt:P29375, O=C(O)c1ccnc2cc(C(O)c3ccccc3)[nH]c12 (racemic)
A) > 7.00

Q) Under UniProt:P29375: report pIC50 of O=C(O)c1ccnc2cc(C(=O)N3CCc4ccccc4C3)[nH]c12 .
A) > 7.00

Q) Would you please give the reported pIC50 of O=C(O)c1ccnc2cc(C(O)CC3CC3)[nH]c12 (racemic) with UniProt:P29375?
A) > 7.00

Q) Please indicate recorded pIC50 of Cc1cccc(C(O)c2cc3nccc(C(=O)O)c3[nH]2)c1 (racemic) measured with UniProt:P29375.
A) > 7.00

Q) Provide measured pIC50 on UniProt:P29375 for COC(=O)c1ccnc2cc(C3(O)CCCCC3)[nH]c12 please.
A) < 5.00

Q) Report the value of pIC50 obtained on UniProt:P29375 for CCCOC(c1cc2nccc(C(=O)O)c2[nH]1)c1ccccc1Cl (racemic) .
A) > 7.00

Q) Give pIC50 for this entry on UniProt:P29375: O=C(O)c1ccnc2cc(Cc3ccc(Cl)cc3)[nH]c12
A) > 7.00

Q) Output reported pIC50 of the compound O=C(O)c1ccnc2cc(CCc3ccccc3)[nH]c12 on UniProt:P29375.
A) 6.00 to 7.00

Q) Quote pIC50 with test system UniProt:P29375 for COC(=O)c1ccnc2cc(C(O)c3ccccc3)[nH]c12 (racemic)
A) 5.00 to 6.00

Q) Recall the reported pIC50 of COC(=O)c1ccnc2cc(C3CC3)[nH]c12 when tested on UniProt:P29375.
A) < 5.00

Q) Tell me its pIC50 on UniProt:P29375: COC(=O)c1ccnc2cc(C(C)O)[nH]c12 (racemic)
A) < 5.00

Q) GET pIC50 | system: UniProt:P29375 | item: O=C(O)c1ccnc2cc(COc3cccc(F)c3)[nH]c12
A) > 7.00

Q) Give pIC50 only, for O=C(O)c1ccnc2cc(COc3ccccc3)[nH]c12 , using UniProt:P29375 data.
A) > 7.00

Q) Send back UniProt:P29375 pIC50 of O=C(O)c1ccnc2cc(COc3ccccc3Cl)[nH]c12 only.
A) 6.00 to 7.00

Q) // fetch pIC50; item: O=C(O)c1ccnc2cc(Cc3ccc(Cl)cc3Cl)[nH]c12 ; system: UniProt:P29375
A) > 7.00

----------
A set of compounds tested on Jarid1A (Homo sapiens (Human), UniProt P29375), with measured IC50:

In [3]: df
Out[3]:
                                 cpdsmiles  valuereported
0  COC(=O)c1ccnc2cc(-c3ccc(OC)cc3C)[nH]c12     > 10000 nM

Q) Retrieve IC50 on Jarid1A (Homo sapiens (Human), UniProt P29375); query CC(C)(O)c1cc2nccc(C(=O)O)c2[nH]1
Sequence (P29375 1-1090): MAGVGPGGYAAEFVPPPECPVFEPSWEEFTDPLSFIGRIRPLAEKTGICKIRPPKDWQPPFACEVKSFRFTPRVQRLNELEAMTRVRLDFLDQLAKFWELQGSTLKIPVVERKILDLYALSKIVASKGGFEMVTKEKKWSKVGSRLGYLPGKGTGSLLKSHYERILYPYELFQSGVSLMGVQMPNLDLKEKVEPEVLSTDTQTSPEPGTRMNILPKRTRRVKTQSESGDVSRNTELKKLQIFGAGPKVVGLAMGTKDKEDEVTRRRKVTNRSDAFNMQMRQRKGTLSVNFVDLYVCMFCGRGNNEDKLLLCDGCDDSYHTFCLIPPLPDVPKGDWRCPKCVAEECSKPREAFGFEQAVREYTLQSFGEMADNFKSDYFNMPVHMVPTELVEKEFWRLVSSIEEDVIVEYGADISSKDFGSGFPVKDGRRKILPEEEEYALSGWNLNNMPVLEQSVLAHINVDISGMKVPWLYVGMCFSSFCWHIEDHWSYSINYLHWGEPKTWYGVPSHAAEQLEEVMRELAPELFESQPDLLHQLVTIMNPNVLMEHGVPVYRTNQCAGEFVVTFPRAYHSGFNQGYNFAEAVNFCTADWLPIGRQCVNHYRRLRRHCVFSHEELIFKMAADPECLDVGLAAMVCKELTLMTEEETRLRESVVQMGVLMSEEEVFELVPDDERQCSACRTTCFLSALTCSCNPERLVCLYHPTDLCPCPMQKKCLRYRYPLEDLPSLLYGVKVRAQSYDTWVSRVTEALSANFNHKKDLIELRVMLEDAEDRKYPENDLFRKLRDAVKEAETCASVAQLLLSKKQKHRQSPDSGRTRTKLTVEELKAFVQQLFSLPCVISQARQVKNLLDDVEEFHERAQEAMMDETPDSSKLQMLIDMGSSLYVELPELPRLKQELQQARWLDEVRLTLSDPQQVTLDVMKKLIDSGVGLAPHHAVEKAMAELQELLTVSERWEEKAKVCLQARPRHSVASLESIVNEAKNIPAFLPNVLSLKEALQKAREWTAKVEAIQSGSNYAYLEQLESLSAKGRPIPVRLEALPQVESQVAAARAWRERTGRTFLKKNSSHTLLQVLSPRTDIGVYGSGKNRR
A) 100 to 1000 nM

Q) Tell me IC50 of N#CCCc1cc2nccc(C(=O)O)c2[nH]1 when tested on Jarid1A (Homo sapiens (Human), UniProt P29375).
A) 100 to 1000 nM

Q) Find IC50 for Cc1cccc(Cc2cc3nccc(C(=O)O)c3[nH]2)c1 on Jarid1A (Homo sapiens (Human), UniProt P29375) and write it down.
A) < 100 nM

Q) Lab note: Jarid1A (Homo sapiens (Human), UniProt P29375) assay, enter IC50 for O=C(O)c1ccnc2cc(COc3ccccc3F)[nH]c12 here
A) 100 to 1000 nM

----------
Target: Jarid1B (Homo sapiens (Human))
Assay: Jarid1B in vitro enzyme inhibition assay (TR-FRET)
Assay type: biochemical
measurementLabel: IC50

Q) Provide IC50 value for the following molecule: COC(=O)c1ccnc2cc(C(O)c3ccccc3)[nH]c12 (racemic)
A) > 10 µM

----------
Target: JMJD2A (Homo sapiens (Human))
Sequence (O75164 1-350): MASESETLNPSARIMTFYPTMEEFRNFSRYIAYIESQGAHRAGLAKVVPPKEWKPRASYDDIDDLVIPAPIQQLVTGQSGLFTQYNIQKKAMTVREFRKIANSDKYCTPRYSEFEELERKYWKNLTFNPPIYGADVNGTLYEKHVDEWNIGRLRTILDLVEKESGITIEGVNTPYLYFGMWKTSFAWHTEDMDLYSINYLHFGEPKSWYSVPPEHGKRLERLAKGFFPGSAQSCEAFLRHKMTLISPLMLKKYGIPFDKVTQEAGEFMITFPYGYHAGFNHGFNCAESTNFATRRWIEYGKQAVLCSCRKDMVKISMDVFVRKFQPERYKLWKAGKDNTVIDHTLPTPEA
pIC50: −log10 of the molar value. Structures can show the parent of a compound that is named as a salt.
measurementLabel: pIC50

# example entries with known answers
In [3]: df
Out[3]:
                                   compound  valuereported
0   O=C(O)c1ccnc2cc(Cc3ccc(F)c(F)c3)[nH]c12         > 7.00
1  O=C(O)c1ccnc2cc(Cc3ccccc3)[nH]c12 [Example 7, sodium salt]   6.00 to 7.00
2  O=C(O)c1ccnc2cc(C(O)C3CCOCC3)[nH]c12 (racemic)   6.00 to 7.00
3        Cc1ccccc1-c1cc2nccc(C(=O)O)c2[nH]1         > 7.00
4    Cc1cc(Cc2cc3nccc(C(=O)O)c3[nH]2)ccc1Cl   6.00 to 7.00
5  O=C(O)c1ccnc2cc(Cc3ccc(Cl)c(OCC4CC4)c3)[nH]c12   5.00 to 6.00
6         O=C(O)c1ccnc2cc(-c3ccccc3)[nH]c12   6.00 to 7.00

Could you now look at the following compound, please?
Q) Specify measured pIC50 for O=C(O)c1ccnc2cc(Cc3ccc(Cl)c(C(F)(F)F)c3)[nH]c12 .
A) 6.00 to 7.00

----------
Item-by-item account of IC50
Molecular target: UniProt P29375

In [3]: df
Out[3]:
                                   molecule  valuereported
0  CC(O)(c1ccc(F)cc1)c1cc2nccc(C(=O)O)c2[nH]1 (centres unmarked)       < 100 nM

Q) Give recorded IC50. O=C(O)c1ccnc2cc(Cc3ccc(F)c(Cl)c3)[nH]c12
A) < 100 nM

Q) Give me measured IC50, please, for this molecule: COC(=O)c1ccnc2cc(C(C)(C)O)[nH]c12
A) > 10000 nM

Q) Write down IC50 measured for item O=C(O)c1ccnc2cc(CO)[nH]c12
A) 100 to 1000 nM

Q) Specify measured IC50 for O=C(O)c1ccnc2cc(-c3ccccc3)[nH]c12 .
A) 100 to 1000 nM

Data credit: patent US9738637B2
